- testDescription: solvent given as SMILES
- protocolConditions: in CC#N
reportedEndpoint: emission maximum

The compound listed as "Cc1cc(C)n2c1C=C1c3ccccc3C(c3c[nH]c4ccccc34)=[N+]1[B-]2(F)F" shows emission maximum equal to 602 nm

Record summary for "c1ccc(-c2nc(-c3ccccc3)nc(-c3cc(-n4c5ccccc5c5ccccc54)c(-n4c5ccccc5c5ncccc54)c(-n4c5ccccc5c5ccccc54)c3)n2)cc1" : reported emission maximum = 535.03 nm

Recorded result, "CC(C)(C)c1ccc2c(c1)c1cc(C(C)(C)C)ccc1n2-c1cccc(-c2nc(-c3cccc(P(=O)(c4ccccc4)c4ccccc4)c3)nc(-c3cccc(P(=O)(c4ccccc4)c4ccccc4)c3)n2)c1" , emission maximum: 581.72 nm

// recorded emission maximum for "O=C(O)c1ccc(-c2nc(-c3ccccc3)c3c4ccccc4ccn23)cc1" : 473 nm

For this compound ( "C(#Cc1ccc(-n2c3ccccc3c3ccccc32)cc1)c1ccccc1" ), measured emission maximum is 443 nm

Record "CCCCCCc1ccc(-n2c3[n+](c4c5ccccc5c5ccccc5c42)[B-](C)(C)c2ccccc2-3)cc1" . Reported emission maximum: 385 nm

// recorded emission maximum for "N#Cc1ccc2c(c1)CCc1nc(-c3ccc([N+](=O)[O-])cc3)c3c(c1-2)CCc1cc(C#N)ccc1-3" : 525 nm

emission maximum reading for "COc1ccc(-c2nnc(-c3cc(-n4c5ccccc5c5ccccc54)c(-n4c5ccccc5c5ccccc54)cc3-c3nnc(-c4ccc(OC)cc4)o3)o2)cc1" : 515.81 nm

Record "C=CC(=O)Oc1ccc2cc(C=C)c(=O)oc2c1" , field emission maximum: 430 nm

// emission maximum value for "CC1(C)CC(=O)c2c(F)c(F)c(F)c(F)c2N1" : 449 nm

Query "O=Cc1cc(N2CCCCC2)c2ccc3c(N4CCCCC4)cc(N4CCCCC4)c4ccc1c2c43" yields emission maximum of 596 nm

Notebook: "CN(C)c1ccc(/C=C2\CCCC2=O)cc1" , emission maximum read as 488 nm

Query "CCCCCCCCCC[n+]1cc2ccc3c[n+](CCCCCCCCCC)cc4ccc(c1)c2c34" yields emission maximum of 424 nm

The recorded emission maximum for entry "CCCCCN(c1ccccc1)c1ccc2c(c1)C(CC)(CC)c1cc(/C=C/c3ccc(/C=C(\C#N)C(=O)O)s3)ccc1-2" equals 496 nm

emission maximum for "N#CC1=c2c3cccc4cccc(c43)n2[B-](F)(F)[n+]2ccccc21" is 527 nm

Lab book: emission maximum of "Cc1cccc2[n+]1[B-](F)(F)n1c(c3cccc4cccc1c43)=N2" noted as 495 nm

====

Please go through the items and note down their emission maximum.
- testDescription: solvent given as SMILES
- protocolConditions: in O
Write it as a number; the unit nm goes unstated.

The reported value for "N#Cc1c(N2CCCC2)cc(-c2ccccc2)c2c1-c1cccc3cccc-2c13" in terms of emission maximum is 550

The compound "CN1/C(=C/C=C(/C=C/c2sc3ccccc3[n+]2C)c2ccc(F)cc2)Sc2ccccc21" showed emission maximum equal to 669

GET /value?item= "CCOC(=O)COc1ccc(C(c2c(C)[nH]c3ccccc23)c2c(C)[nH]c3ccccc23)cc1" &field=emission maximum returns 350

emission maximum for "O=C(O)COc1cccc(OCC(=O)O)c1-c1c2ccc(=[N+]3CCCCC3)cc-2oc2cc(N3CCCCC3)ccc12" is 594

For reference, reported emission maximum for "CN(C)CCCN1c2ccccc2Sc2ccc(Cl)cc21" stands at 453

emission maximum reading for "CCCN1/C(=C/C=C(/C=C/C2=[N+](CCC)c3ccccc3C2(C)C)c2cc[n+](C)cc2)C(C)(C)c2ccccc21" : 658

GET /value?item= "CCN(CC)c1ccc2c(-c3ccc(S(=O)(=O)O)cc3S(=O)(=O)[O-])c3ccc(=[N+](CC)CC)cc-3oc2c1" &field=emission maximum returns 591

Form: compound = "Cn1c(=O)c(/N=N/c2ccc(Nc3ccc([N+](=O)[O-])cc3S(=O)(=O)O)cc2)c(O)c2ccccc21" ; emission maximum = 636

Reported emission maximum of "N#CC(C#N)=Cc1ccc(-c2ccc(O)c(-c3nc4ccccc4s3)c2)o1" : 652

Quick note, emission maximum for "CN(C)c1ccc(-c2nc(-c3ccccc3)c3ccccn23)cc1" landed at 512

Recorded result, "COCCOc1cc(C=O)c(OCCOC)cc1C=O" , emission maximum: 495

Value of emission maximum reported for the compound "CC[n+]1c(-c2ccccc2)c2cc(NC(N)=O)ccc2c2ccc(N)cc21" is 601

So, "CN(C)c1ccc2[c](c1)[Ge]([CH3])([CH3])[C]1=CC(=[N+](C)C)C=CC1=C2" ? Its emission maximum was 634

# emission maximum of "CCCN1/C(=C/C=C/C=C/C2=[N+](CCC)c3ccccc3C2(C)C)C(C)(C)c2ccccc21" = 652

# emission maximum of "CC1=CC(C)=[N+]2C1=C(c1ccc(O)cc1)c1c(C)cc(/C=C/C=C3/N(C)c4ccccc4C3(C)C)n1[B-]2(F)F" = 708

Looking up O=C(O)C1=CC(=C/C=[N+]2/c3cc(O)c(C[C@@H]4O[C@H](CO)[C@@H](O)C(O)[C@H]4O)cc3C[C@H]2C(=O)O)C=C(C(=O)O)N1 (some centres undefined) , I found its emission maximum recorded as 620

Per the record, "COc1ccc2c3c([nH]c2c1)C(C)=NCC3" has emission maximum of 480

Data point: "CCCCCCCCCCCCOc1cc2cc(N(C)C)ccc2cc1C=O" ; emission maximum = 504

The compound listed as "CC[N+]1(CC)CN2C(=N1)C(C(=O)O)=Cc1cc(SC)ccc12" has a reported emission maximum of 515
